# assayText: Cycloheximide Counterscreen for Small Molecule Inhibitors of Shiga Toxin; further: read at 38.3 µM for the half of the compounds with a filed dose; 0% is about no effect
# condition: cell reporter, cycloheximide protein synthesis inhibition counterscreen; stronger effect = higher value
In all, about 300,000 compounds went through this assay and about 37,000 (12%) were called active. Many of the other results were omitted from the sample, so actives are more common in it than they were.
For each of the compounds below, state its max response.
I only need the number, in %, no unit after it.

Task: Supply recorded max response for "CC(=O)NCCc1nc2cc(NC(=O)c3ccccc3)ccc2n1C" here.
Result: 20.2

Task: Supply recorded max response for "O=C(CSc1nnc(-c2ccncc2)o1)NCc1ccc(Cl)cc1" here.
Result: -4.87

Task: Supply recorded max response for "CNC(=S)N/N=C/c1cn(Cc2ccc(C)cc2)c2ccccc12" here.
Result: 3.75

Task: Supply recorded max response for "CCN(CC)C(=O)CSC(Nc1cccc(F)c1)=C(C#N)C#N" here.
Result: -0.453

Task: Supply recorded max response for Cc1ccc(S(=O)(=O)N(Cc2cc3ccccc3[nH]c2=O)CC2CCCO2)cc1 (configuration not stated) here.
Result: -1.24

Task: Supply recorded max response for "O=C(N/C(=C\c1ccc(F)cc1)C(=O)N1CCCCCC1)c1ccccc1" here.
Result: -2.25

Task: Supply recorded max response for "CCCN1Cc2cccc(C(=O)Nc3ccc(S(=O)(=O)N4CCCCCC4)cc3)c2C1=O" here.
Result: -1.84

Task: Supply recorded max response for "CCN(CC)N=Nc1cccc(NC(C)=O)c1" here.
Result: 15.1

Task: Supply recorded max response for Cc1ccc(N(CC(=O)NCC2CCCO2)C(=O)CNS(=O)(=O)c2ccc(Cl)cc2)cc1 (configuration not stated) here.
Result: -3.88

Task: Supply recorded max response for "COc1ccc(N2CCN(C(=S)Nc3ccc(S(N)(=O)=O)cc3)CC2)cc1" here.
Result: -1.06

Task: Supply recorded max response for Cc1ccccc1N1CCN(C2CCCN(C(=O)c3cn4c(C)cccc4n3)C2)CC1 (configuration not stated) here.
Result: -1.34

Task: Supply recorded max response for CC(C)Cn1c(N)c(C(=O)COC(=O)CN2C(=O)C3CC=CCC3C2=O)c(=O)n(C)c1=O (configuration not stated) here.
Result: 1.25

Task: Supply recorded max response for CC(NCc1ccccc1OC1CCCC1)c1ccccc1 (configuration not stated) here.
Result: -1.87

Task: Supply recorded max response for "Cc1[nH]c(C)c(S(=O)(=O)N2CCN(c3cccc(C(F)(F)F)c3)CC2)c1C(=O)N1CCCC1" here.
Result: -5.38

Task: Supply recorded max response for COc1ccc(C2CC(O)(c3ccccc3)Oc3cc(C)cc(C)c32)cc1 (configuration not stated) here.
Result: 15.7

Task: Supply recorded max response for "O=c1c(Cl)c(NCc2ccc(F)cc2Cl)cnn1C12CC3CC(CC(C3)C1)C2" here.
Result: -2.73

Task: Supply recorded max response for "COc1ccc(CCNS(=O)(=O)c2cccc([N+](=O)[O-])c2)cc1" here.
Result: 4.94

Task: Supply recorded max response for "Clc1ccc(-c2nnc(SCc3nc4ccccc4s3)o2)cc1" here.
Result: 31.5

Task: Supply recorded max response for "CCOC(=O)N/N=C/c1cn(Cc2ccccc2Cl)c2ccccc12" here.
Result: 4.93

Task: Supply recorded max response for "Cn1c(NC(=O)c2ccccc2)nc2ccccc21" here.
Result: 25.8

Task: Supply recorded max response for "COc1cc(C)cc(CN2CCC(Cc3ccccc3)CC2)c1O" here.
Result: -8.91

Task: Supply recorded max response for "COC(=O)N/N=C/c1cn(CCCOc2ccc(C)cc2)c2ccccc12" here.
Result: 44.1

###

# assayText: Cycloheximide Counterscreen for Small Molecule Inhibitors of Shiga Toxin; further: read at 38.3 µM for the half of the compounds with a filed dose; 0% is about no effect
# condition: cell reporter, cycloheximide protein synthesis inhibition counterscreen
Among all 300,000 compounds or so, about 37,000 (12%) were called active. Rule as the data show it: active = max response mostly above about 13% (no sharp cut-off); inactive = mostly below about 14%. What follows is part of a selection rich in actives, with near analogues and random picks from the rest.
Use one of these outcomes when replying: t (active), f (inactive)

Task: What did this assay record as the result for "CN1CCN(C(=O)c2cnn(-c3ccccc3)c2NC(=O)c2ccc([N+](=O)[O-])cc2)CC1" ?
Result: f

Task: What did this assay record as the result for "Cc1ccc(-c2csc(NC(=O)c3cnccn3)n2)cc1C" ?
Result: f

Task: What did this assay record as the result for "O=C(Nc1ccccc1F)c1ccccc1-c1ccccc1" ?
Result: f

Task: What did this assay record as the result for "Cc1ccc(C2=N/C(=C\c3ccc(OS(=O)(=O)c4ccc(C)cc4)cc3)C(=O)O2)cc1" ?
Result: f

Task: What did this assay record as the result for "Cc1cc(C=O)c(C)n1-c1ccc(NC2CCCCC2)c([N+](=O)[O-])c1" ?
Result: f

Task: What did this assay record as the result for "O=C(CSCc1ccc([N+](=O)[O-])cc1)Nc1cccc(C(=O)Nc2ccccc2C(=O)O)c1" ?
Result: f

Task: What did this assay record as the result for CC1CCC2CCCCC2N1C(=O)c1cc([N+](=O)[O-])cc([N+](=O)[O-])c1 (stereo unspecified) ?
Result: f

Task: What did this assay record as the result for "COc1ccc(N/N=C2/CCCCC2=O)cc1" ?
Result: f

Task: What did this assay record as the result for CC1(C(=O)O)CCC(C(=O)Nc2ccc(Cl)c(Cl)c2)C1(C)C (stereo unspecified) ?
Result: f

Task: What did this assay record as the result for "O=C(Nc1nnc(-c2ccccc2F)s1)c1ccccc1F" ?
Result: t

Task: What did this assay record as the result for "COC(=O)CN1C(=O)[C@H]2[C@@H](C3CC3)N3C(=O)CN(Cc4ccc(-c5ccccc5)cc4)C(=O)[C@@]3(Cc3ccccc3)[C@H]2C1=O" ?
Result: f

Task: What did this assay record as the result for "CN(CC(=O)Nc1ccc(F)cc1)CC(=O)Nc1ccc(Cl)c(S(=O)(=O)N2CCOCC2)c1" ?
Result: f

Task: What did this assay record as the result for "O=C(O)c1ccccc1-c1ccccc1C(=O)NCc1cccnc1" ?
Result: f

Task: What did this assay record as the result for "O=C(Nc1nc(-c2cccnc2)cs1)c1ccccc1F" ?
Result: t

Task: What did this assay record as the result for "CC(C)NC(=S)NN=C1CCCCCCCCCCC1" ?
Result: f

Task: What did this assay record as the result for "COc1ccccc1NC(=O)C1CCN(C(=O)c2ccc(C(C)(C)C)cc2)CC1" ?
Result: f

Task: What did this assay record as the result for "NC(=O)c1ccc(Nc2ccc3c(c2)CCC3)c([N+](=O)[O-])c1" ?
Result: f

Task: What did this assay record as the result for "CCOCc1nnc(NC(=O)CCS(=O)(=O)Cc2ccccc2)s1" ?
Result: f

Task: What did this assay record as the result for "O=C(O)c1ccccc1C(=O)Nc1nc(-c2ccccc2)cs1" ?
Result: f

Task: What did this assay record as the result for Cc1cccc2[nH]c(CN(C)C(=O)C3CCC(=O)N(CCc4ccccc4)C3)nc12 (stereo unspecified) ?
Result: f

Task: What did this assay record as the result for CCc1ccc(C2C(C#N)=C(N)N(N3CCOCC3)C3=C2C(=O)CC(C)(C)C3)s1 (stereo unspecified) ?
Result: f

###

# assayText: Cycloheximide Counterscreen for Small Molecule Inhibitors of Shiga Toxin; further: read at 38.3 µM for the half of the compounds with a filed dose; 0% is about no effect
# condition: cell reporter, cycloheximide protein synthesis inhibition counterscreen; stronger effect = higher value
The campaign covered roughly 300,000 compounds. About 37,000 (12%) were called active. Only a selection was taken, and actives are over-represented in it overall.
measurementLabel: max response (%)
I only need the number, in %, no unit after it.

Task: Supply recorded max response for "O=c1[nH]c2ccc(S(=O)(=O)N3CCCC3)cc2[nH]1" here.
Result: -1.27

Task: Supply recorded max response for COc1ccc(CCN2C(=O)N(c3ccc(OC)cc3)C(=O)C2CC(=O)Nc2ccc(OC)cc2)cc1 (stereo not given) here.
Result: 1.2

Task: Supply recorded max response for "COc1ccc(Nc2ccc([N+](=O)[O-])cn2)cn1" here.
Result: -2.61

Task: Supply recorded max response for "CN(C)Cc1c(C(=O)N/N=C/c2ccccc2OCc2ccc(F)cc2)nnn1-c1nonc1N" here.
Result: -5.05

Task: Supply recorded max response for O=C(Nc1ccc2c(c1)OCCO2)C1CCCN(c2ncccn2)C1 (stereo not given) here.
Result: 22

Task: Supply recorded max response for O=C(Nc1cccc(Cl)c1)C1CCCN(c2cnccn2)C1 (stereo not given) here.
Result: 5.49

Task: Supply recorded max response for "COc1ccc(S(=O)(=O)Nc2ccc(O)c(Sc3nc4ccccc4s3)c2)cc1" here.
Result: 1.12

Task: Supply recorded max response for "COc1ccc(-n2c(O)c(C(C)=Nc3ccc4c(c3)CCC4)c(=O)[nH]c2=O)cc1" here.
Result: -1.73

Task: Supply recorded max response for CCc1[nH]nc(C(=O)N2CCCC(CO)(Cc3ccc(F)cc3F)C2)c1C (stereo not given) here.
Result: -3.79

Task: Supply recorded max response for Cc1ccc2c(c1)C(c1ccccc1)N(C(=O)c1ccc(F)cc1)CC(=O)N2 (stereo not given) here.
Result: -3.35

Provenance of the data: PubChem BioAssay AID2314
